- assay-remarks: Toxicity liver stage against HepG2, at 10uM
- Assay type: cell-based
- Set-up: test concentration 10 uM, cell line HepG2-A16-CD81EGFP
- condition-description: human, HepG2-A16-CD81EGFP cells; read-out: INHIBITION
For each of the molecules below, state its cytotoxicity at 10 µM.
Answers are plain numbers, in %.

# molecule, value-kind, assay-result
data = [
    ("CC(C)(C)CN(CCC#N)Cn1cc(Cl)cn1", "cytotoxicity at 10 µM", 6.29),
    ("CCn1cc(Cn2cc(-c3cccc(C(C)N(C)C)c3)nn2)cn1 (stereo not given)", "cytotoxicity at 10 µM", -6.97),
    ("Cc1ccsc1C(=O)N1CCC(c2nccn2Cc2ccncc2)CC1", "cytotoxicity at 10 µM", 0.535),
    ("Cc1cccc(CNC2(CCO)CCOCC2)c1C", "cytotoxicity at 10 µM", -14.9),
    ("COC(=O)c1cccc2nc([C@H]3CCN(Cc4ccccc4C)C3)oc12", "cytotoxicity at 10 µM", 8.36),
]

Below are 5 molecules. Give each one its cytotoxicity at 10 µM.
1. COC(=O)N1C[C@@H]2CC[C@H]1CN(Cc1cscn1)C2
2. CCc1ccc2nc(C)cc(C(=O)N[C@@H]3CCCNC3)c2c1
3. c1cc(-c2cn[nH]c2)ncc1CN1CCCCC1
4. COCCNC(=O)N1CCOCC1c1c(C)nn(C)c1C (stereo not given)
5. Cc1cccc(=O)n1CCC(=O)N1CCC2(CC1)OCCCC2O (stereo not given)

## Result
-9.25
-5.09
-1.35
-8.18
-1.95

Below are 4 molecules. Give each one its cytotoxicity at 10 µM.
1. c1ccc(NCc2cn3c(n2)CNCC3)nc1
2. CCC(CNC(=O)COC)Oc1cccc(F)c1 (stereo not given)
3. Cc1cnc(CNC(=O)C[C@@H]2COC[C@H]3CN(C4CCC4)C[C@@H]23)cn1
4. CCOc1ccccc1C(CC(=O)N(C)C)NC(C)=O (stereo not given)

## Result
[9.28, -44.6, -10.6, -4.67]

Below are 4 molecules. Give each one its cytotoxicity at 10 µM.
1. CN(C)c1ccc(CCCNC(=O)NCC(O)c2cccs2)cc1 (stereo not given)
2. O=C(Cc1cccs1)N1CCCCC1c1ccn2ccnc2n1 (stereo not given)
3. Cc1cnc(NC(=O)C(C)n2ccc(C(F)(F)F)n2)s1 (stereo not given)
4. O=C(c1ccc2nccnc2c1)N1CCN(CCO)[C@@H]2CS(=O)(=O)C[C@@H]21

## Result
-2.59
-6.58
1.75
-10.4

Below are 2 molecules. Give each one its cytotoxicity at 10 µM.
1. Nc1cccnc1N1CCC(O)CC1
2. CSc1ccc(CN(CCO)C(=O)CCc2cccc(F)c2)cc1

## Result
2.3
2.93

---

- assay-remarks: Toxicity liver stage against HepG2, at 10uM
- Type: cell-based
- Set-up: test concentration 10 uM, cell line HepG2-A16-CD81EGFP
- condition-description: human, HepG2-A16-CD81EGFP cells; read-out: INHIBITION
value-kind: cytotoxicity at 10 µM
Give the figure together with its unit, number first.

Some entries whose results are on file:
# compound, cytotoxicity at 10 µM
records = [
    ("CCN(Cc1csc(C)n1)c1cccc(CO)c1", "-6.55%"),
    ("NC(=O)N1CCCC(c2nc(-c3cccnn3)no2)C1 (stereo not given)", "-1.31%"),
    ("Cc1ccccc1C1(C(=O)NCCN2CCCC(C)C2)CCOCC1 (stereo not given)", "-2.34%"),
    ("Cc1cccc2cc(C(=O)N3CCSCC3)n(C)c12", "6.25%"),
    ("Cc1cccnc1NC(=O)c1ccc(-n2cncn2)nn1", "-1.52%"),
    ("O=C(N1CCOCC1)[C@@]12CCO[C@@H]1CCN(CC1CCCCC1)C2", "3.59%"),
    ("CC(C)CN1C[C@H](COCc2ccccc2)Oc2ncccc2C1=O", "-57.4%"),
    ("Cc1csc(CCNCc2cnc3c(c2)c(C)nn3C)n1", "5.76%"),
    ("Cn1cc(CCNC(=O)N2CCCC(Cc3nccn3C)C2)cn1 (stereo not given)", "-4.52%"),
    ("Cc1ccc2oc(SCC(=O)NC(C)(C)C)nc2n1", "-0.3%"),
]

Below are 7 compounds. Give each one its cytotoxicity at 10 µM.
1. CN(C)C1CCCN(C(=O)c2cccc(-c3ncc[nH]3)c2)CC1 (stereo not given)
2. COc1ccnc(N2CCN(Cc3ncc(C(C)(C)C)o3)CC2)n1
3. Cc1nc(N(C)C)nc(C)c1NC(=O)c1ccco1
4. CNC(=O)[C@@H]1C[C@H](N)CN1S(=O)(=O)c1cc(C)c(Cl)cc1C
5. Cn1ccnc1COc1ccc(CSc2nncn2C2CC2)cc1
6. O=C(NCCC1=CCCCC1)C1CCCN(c2ccc3nncn3n2)C1 (stereo not given)
7. CN(CC(=O)NCc1ccco1)Cc1nc2c(s1)CCCC2

## Result
1: 4.2%; 2: -7.2%; 3: 1.14%; 4: -0.869%; 5: 3.67%; 6: 4.01%; 7: 13.6%

Below are 8 compounds. Give each one its cytotoxicity at 10 µM.
1. CCN(CC)CC1CCN(C(=O)CCn2cccn2)CC1
2. CC(C)c1nccn1CC(=O)Nc1ccnn1C(C)C(C)C (stereo not given)
3. CC(C)(C)c1ncc2c(n1)CN(C(=O)c1ccc(-n3cnnn3)cc1)C2
4. CCCc1nc(C)cc(NCCc2nnc(N)s2)n1
5. Cn1cnc(S(=O)(=O)N2CCCc3cc(F)cc(F)c32)c1Cl
6. COc1cccc(COCC(=O)N2CCCCCC2)c1
7. CC(C)(C)NCC(=O)N1CCCC(n2ccnc2)C1 (stereo not given)
8. Cc1noc(C2CCC3(CCN(C(=O)c4cnn(C)c4)CC3)O2)n1 (stereo not given)

## Result
-13.3%
1.11%
-1.98%
3.07%
-0.767%
-3.48%
0.462%
8.77%
